Tested on: CEM cells HIV-1 protection, formazan growth assay
methodSummary: NCI AIDS Antiviral Assay
testConditions: measured here: growth of uninfected CEM cells
pIC50: −log10 of the molar value.
Where pIC50 equals or exceeds 4, the correct label is 1; where it does not, the label is -1.

# example entries with known answers
| compound | studyTarget | labelValue |
| --- | --- | --- |
| CC(C)(C)SSC(C)(C)C | CEM cells HIV-1 protection, formazan growth assay | -1 |
| Cc1ccc(OCC2OC(n3cnc4c(Cl)nc(N)nc43)CC2Oc2ccc(C)cc2)cc1 (stereo unspecified) | CEM cells HIV-1 protection, formazan growth assay | 1 |
| c1ccc(-c2sc(-c3ccccc3)c3c2C2CCC3C2)cc1 | CEM cells HIV-1 protection, formazan growth assay | 1 |
| NCCS | CEM cells HIV-1 protection, formazan growth assay | -1 |
| O=C1CNc2cc(N3CCCCC3)ccc2N1 | CEM cells HIV-1 protection, formazan growth assay | 1 |

Given CCC(C(=O)NNC(=O)c1cc(OC)c(OC)c(OC)c1)c1ccccc1 (stereo unspecified) , state whether its pIC50 is at least 4. -1

Given Cc1ccc2c(c1)c1ccc3c(c1n2C)C(=O)C=CC3=O , state whether its pIC50 is at least 4. 1

Given C[C@@H]1CC[C@]2(C)C3(C)CC[C@]2(OC3=O)[C@@]12CC(c1ccoc1)OC2=O (stereo partly specified) , state whether its pIC50 is at least 4. 1

====

Test system: CEM cells HIV-1 protection, formazan growth assay
methodSummary: NCI AIDS Antiviral Assay
testConditions: measured here: growth of uninfected CEM cells
# IC50 listing for each entry below
Numeric answer only, unit µM assumed.

Reference set (2 entries):
| molecule | propertyName | quantitativeReadout |
| --- | --- | --- |
| Nc1nc(Cl)cc(NCC2(O)CCCC2)n1 | IC50 | 166 |
| Cn1cc(NC(=O)c2cc(NC(=O)CCCCCC(=O)Nc3cc(C(=O)Nc4cc(C(=O)NCCC(=N)N)n(C)c4)n(C)c3)cn2C)cc1C(=O)NCCC(=N)N | IC50 | 67.6 |

What IC50 value was documented for this molecule, N=C(N)SCc1cccc2c(=O)cc(-c3ccccc3)oc12 ? 5.62

What IC50 value was documented for this molecule, N=c1ccn2c(n1)OC1C(O)C(CCl)OC12 (stereo not given) ? 0.145

====

Tested on: CEM cells HIV-1 protection, formazan growth assay
methodSummary: NCI AIDS Antiviral Assay
propertyName: EC50

Reference set (5 entries):
| molecule | result |
| --- | --- |
| C/C(CC(=O)Nc1cccc(Cl)c1C)=N\NC(N)=S | > 120 µM |
| Cc1ccc(-n2cc(-c3ccc(Cl)cc3)c3c(=N)n(N)cnc32)cc1 | > 100 µM |
| CC(=O)O[C@]1(C(C)=O)CC[C@H]2[C@@H]3C=C(Cl)C4=CC(=O)CC[C@]4(C)[C@H]3CC[C@@]21C | > 200 µM |
| O=S1(=O)c2ccccc2N(c2ccccc2)c2nnnn21 | > 79.4 µM |
| O=S(=O)(O)CC(O)CSSCC(O)CS(=O)(=O)O (stereo not given) | > 200 µM |

What EC50 value was documented for this molecule, CC1(O)Cc2c(O)c3c(c(O)c2CC1O)C(=O)C=CC3=O (stereo not given) ? > 12.9 µM

What EC50 value was documented for this molecule, CC(=O)N1N=C(c2ccc3ccccc3c2O)CC1c1ccc(N(C)C)cc1 (stereo not given) ? > 50.1 µM

What EC50 value was documented for this molecule, COC(=O)c1sc2c(=O)c(C(=O)OC)c(C(=O)OC)sc2c(=O)c1C(=O)OC ? > 151 µM

What EC50 value was documented for this molecule, COc1ccc(C(=O)C(C(=O)C(=O)Nc2nc3ccc(OC)cc3s2)c2ccc(OC)cc2)cc1 (stereo not given) ? > 38 µM

What EC50 value was documented for this molecule, N#CC(c1ccccc1)(c1ccccc1)[C@@H](c1ccccc1)[C@H](Cc1ccccc1)NS(=O)(=O)c1ccccc1 ? > 200 µM
